Catalogue of molecules with associated normalized growth
test: chemical genetic growth profiling, strain panel (AID 1159580);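 note: tested at 20 µM; growth read once vehicle control cultures reached saturation at 30 °C; 1 = growth at the plate median or of vehicle wells; lower values mean less growth of the strain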; settings: S. cerevisiae deletion strains, growth OD, locus YJR066W, strain TOR1, hits give low values
The whole screen tested about 5,500 compounds, of which about 2,000 (36%) were called active. Inconclusive results (about 18%) are left out. Some of the results follow.
// return just the number, without any unit appended

MOLECULE | RECORDED_RESULT
CCN(CC)[N+]([O-])=NO | 0.931
N#C/C(N=Cc1cc(Cl)cc(Cl)c1O)=C(\C#N)N=Cc1cc(Cl)cc(Cl)c1O | 0.414
CC(C)C[C@@H](NC(=O)OCC1c2ccccc2-c2ccccc21)C(=O)O | 0.89
Nc1ccc(S(=O)(=O)Nc2ncccn2)cc1 | 0.92
CSCCC(N)C(=O)NC(CC(C)C)C(=O)NC(Cc1ccccc1)C(=O)O (centres undefined) | 0.934

Lookup: Give the measured normalized growth of COC(=O)[C@H]1[C@H]2C[C@H]3c4[nH]c5cc(OC)ccc5c4CCN3C[C@H]2C[C@@H](OC(=O)c2cc(OC)c(OC)c(OC)c2)[C@@H]1OC .
Found: 0.92

Lookup: Given CC1Cc2ccccc2N1NC(=O)c1ccc(Cl)c(S(N)(=O)=O)c1 (centres undefined) , state its recorded normalized growth.
Found: 0.94

Lookup: What value of measured normalized growth is listed for CCn1nc(C)cc1C(=O)Sc1cccc(Br)c1 ?
Found: 0.543
